# System: ABUTH = velvetleaf (Abutilon theophrasti)
# assay-method-text: General postemergence herbicidal activity, velvetleaf
# Assay type: in vivo
# assay-setup: Abutilon theophrasti, post-emergence, 336 h; post-emergent, 140 g ai/ha, visual score after 14 days (0 no injury, 100 complete kill)
Kindly supply the reported pest or weed control at 140 g/ha values for the records listed here.
One number for each entry, in %.

Worked cases, pest or weed control at 140 g/ha given:
* COC(=O)c1nc(-c2c(F)cc(Cl)c(OC)c2F)nc(N)c1Cl [Compound 2] | 90
* CN(C)c1c(Cl)ccc(-c2nc(N)c(Cl)c(C(=O)O)n2)c1F [Compound 23] | 95
* COC(=O)c1nc(-c2ccc(Cl)c(SC(F)(F)F)c2F)nc(N)c1Cl [Compound 14] | 80
* COc1c(Cl)ccc(-c2nc(N)c(Br)c(C(=O)O)n2)c1F [Compound 25] | 95
* COC(=O)c1nc(-c2ccc(Cl)c(OC)c2F)nc(N)c1F [Compound 12] | 85

Okay, here is my list. What is pest or weed control at 140 g/ha for each of these?
1. COC(=O)c1nc(-c2ccc3c(c2F)OCO3)nc(N)c1Cl [Compound 9]
2. COC(=O)c1nc(-c2ccc(Cl)c(C)c2F)nc(N)c1Cl [Compound 11]
3. Nc1nc(-c2ccc(Cl)c(OCC(F)F)c2F)nc(C(=O)O)c1Cl [Compound 21]
4. Nc1nc(-c2ccc3c(c2F)OCO3)nc(C(=O)O)c1Cl [Compound 22]
5. COC(=O)c1nc(-c2ccc(Cl)c(C(F)F)c2F)nc(N)c1Cl [Compound 7]

[reply]
1: 95; 2: 95; 3: 0; 4: 80; 5: 80

Batch: pest or weed control at 140 g/ha for all items listed.
1. Cc1c(Cl)ccc(-c2nc(N)c(Cl)c(C(=O)O)n2)c1F [Compound 20]
2. COC(=O)c1nc(-c2ccc(Cl)c(OC)c2Cl)nc(N)c1Cl [Compound 6]
3. COC(=O)c1nc(-c2ccc(Cl)c(OCC(F)F)c2F)nc(N)c1Cl [Compound 10]

[reply]
1: 90; 2: 95; 3: 75

Please look at the items below and tell me pest or weed control at 140 g/ha for each one, in order.
1. CCOc1c(Cl)ccc(-c2nc(N)c(Cl)c(C(=O)O)n2)c1F [Compound 19]
2. COC(=O)c1nc(-c2ccc(Cl)c(N(C)C)c2F)nc(N)c1Cl [Compound 8]
3. COC(=O)c1nc(-c2ccc(Cl)c(OC)c2F)nc(N)c1Br [Compound 13]
4. COC(=O)c1nc(-c2cc(OC)c(Cl)cc2F)nc(N)c1Cl [Compound 5]
5. CCOc1c(Cl)ccc(-c2nc(N)c(Cl)c(C(=O)OC)n2)c1F [Compound 1]

[reply]
[95, 100, 100, 95, 100]
